- ASSAY_SUMMARY: Tissue (fat) biopsy concentration versus plasma
- Format: in vivo
- TEST_CONTEXT: human fat biopsies, read-out: concentration in tissue (fat) relative to plasma/blood
RECORDED_METRIC: Kp

Report Kp for N#Cc1ccc(C(F)(c2ccc(C#N)cc2)n2cncn2)cc1 [CGP47645] please.
≤ 10

====

- ASSAY_SUMMARY: Single ascending dose study in pre- and post-menopausal women: safety, tolerability and PK
- Type: in vivo, human
- TEST_CONTEXT: female, human, in vivo, Tmax
- Description: The drug concentration in plasma and/or serum samples can be determined by a number of different ways, e.g. HPLC or LC-MS/MS analyses. […] A minimal toxic dose (MTD) was not reached. […] Table 3 presents the PK parameters based on analysis of the concentration-time profile obtained from this study.
RECORDED_METRIC: Tmax

# get_value(readout='Tmax', item= N#Cc1ccc(C(F)(c2ccc(C#N)cc2)n2cncn2)cc1 )
0.5 to 2 h
